# System: Enterococcus faecalis ATCC 29212
REPORTED PROPERTY: MIC

(Q) Input CC[C@H](C)[C@H](N)C(=O)N[C@@H](CS)C(=O)N[C@@H](CCCN=C(N)N)C(=O)N[C@@H](CCCCN)C(=O)N1CCC[C@H]1C(=O)N[C@H](C(=O)N[C@H](C(=O)N[C@@H](CS)C(=O)N[C@@H](CCCN=C(N)N)C(=O)N[C@@H](CCCCN)C(=O)N1CCC[C@H]1C(=O)N[C@H](C(=O)N[C@H](C(=O)N[C@@H](CS)C(=O)N[C@@H](CCCN=C(N)N)C(=O)N[C@@H](CCCCN)C(=O)N1CCC[C@H]1C(=O)N[C@H](C(N)=O)[C@@H](C)CC)[C@@H](C)CC)[C@@H](C)CC)[C@@H](C)CC)[C@@H](C)CC , output reported MIC.
(A) > 64 µM

---

# MIC per entry for Escherichia coli JM109
Please respond with the number in µM and leave the unit unwritten.

These solved cases illustrate the format of a correct answer.
CC[C@H](C)[C@H](NC(=O)[C@H](CO)NC(=O)[C@H](CCCCN)NC(=O)[C@H](CC(C)C)NC(=O)[C@H](CCCCN)NC(=O)[C@@H](N)CC(C)C)C(=O)N[C@H](C(=O)N[C@@H](CO)C(=O)N[C@@H](Cc1ccc(O)cc1)C(=O)N[C@@H](C)C(=O)N[C@@H](CCCCN)C(=O)N[C@@H](CCCCN)C(=O)N[C@H](C(=O)N[C@@H](CC(C)C)C(N)=O)C(C)C)C(C)C [LKLKSIVSYAKKVL]
1.26
CC[C@H](C)[C@H](NC(=O)[C@H](C)NC(=O)[C@H](CC(C)C)NC(=O)[C@H](CS)NC(=O)[C@H](Cc1cnc[nH]1)NC(=O)[C@H](C)NC(=O)[C@H](C)N)C(=O)NCC(=O)N[C@@H](CCCN=C(N)N)C(=O)N[C@@H](CCCN=C(N)N)C(N)=O [AAHCLAIGRR]
15
CC[C@H](C)[C@H](NC(=O)[C@H](CC(N)=O)NC(=O)[C@H](CCCCN)NC(=O)[C@H](CC(C)C)NC(=O)[C@H](CCCCN)NC(=O)[C@@H](N)CC(C)C)C(=O)N[C@H](C(=O)N[C@@H](CO)C(=O)N[C@@H](Cc1c[nH]c2ccccc12)C(=O)N[C@@H](C)C(=O)N[C@@H](CCCCN)C(=O)N[C@@H](CCCCN)C(=O)N[C@H](C(=O)N[C@@H](CC(C)C)C(N)=O)C(C)C)C(C)C [LKLKNIVSWAKKVL]
1.22

(Q) Input CC[C@H](C)[C@H](N)C(=O)N[C@@H](CC(N)=O)C(=O)N[C@@H](CC(C)C)C(=O)N[C@@H](CCCCN)C(=O)N[C@@H](C)C(=O)N[C@H](C(=O)N[C@@H](C)C(=O)N[C@@H](C)C(=O)N[C@@H](Cc1ccccc1)C(=O)N[C@@H](C)C(=O)N[C@@H](CCCCN)C(=O)N[C@@H](CCCCN)C(=O)N[C@@H](CC(C)C)C(=O)N[C@@H](CC(C)C)C(N)=O)[C@@H](C)CC [INLKAIAAFAKKLL] , output reported MIC.
(A) 5.28

---

# MIC per entry for Aspergillus fumigatus
Please respond with the number in µM and leave the unit unwritten.

These solved cases illustrate the format of a correct answer.
CC[C@H](C)[C@H](NC(=O)[C@@H](NC(=O)[C@H](Cc1cnc[nH]1)NC(=O)[C@@H](NC(=O)[C@@H](NC(=O)[C@H](CCCCN)NC(=O)[C@H](CCCN=C(N)N)NC(=O)[C@@H](NC(=O)[C@@H](NC(=O)[C@@H](N)CCCN=C(N)N)[C@@H](C)CC)[C@@H](C)CC)[C@@H](C)CC)[C@@H](C)CC)[C@@H](C)CC)C(N)=O
31.4
CC(C)C[C@H](NC(=O)[C@H](C)NC(=O)[C@H](CCCN=C(N)N)NC(=O)[C@H](CCCN=C(N)N)NC(=O)[C@H](C)NC(=O)[C@H](Cc1c[nH]c2ccccc12)NC(=O)[C@H](CCCCN)NC(=O)[C@H](CCCN=C(N)N)NC(=O)[C@H](C)NC(=O)[C@H](CCCN=C(N)N)NC(=O)[C@H](CCCN=C(N)N)NC(=O)[C@H](C)N)C(=O)N[C@@H](CCCCN)C(=O)N[C@@H](CC(C)C)C(=O)N[C@@H](C)C(N)=O
25

# next molecule below
(Q) Quote Aspergillus fumigatus MIC for entry CC(C)[C@H](NC(=O)[C@@H](N)CCCCN)C(=O)N[C@@H](C)C(=O)N[C@@H](CCCCN)C(=O)N[C@@H](CCC(N)=O)C(=O)N[C@@H](CCC(=O)O)C(=O)N[C@@H](CCCCN)C(=O)N[C@@H](CCCCN)C(=O)N[C@@H](CCCCN)C(=O)N[C@@H](CCCCN)C(=O)N[C@@H](CCCCN)C(=O)N[C@H](C(=O)NCC(=O)N[C@@H](CCCN=C(N)N)C(=O)N[C@@H](C)C(=O)N[C@@H](CCCCN)C(=O)N[C@@H](CCCN=C(N)N)C(=O)N[C@@H](CCCN=C(N)N)C(=O)O)[C@@H](C)O .
(A) 18
